Readout Label: glass transition temperature

INSERT INTO results (molecule, result) VALUES
  ('*c1ccc(C(=O)OCCCCCCCCCCOc2ccc(/C=C/C(=O)/C=C/c3ccc(OCCCCCCCCCCOC(=O)c4ccc(-c5nnc(*)o5)cc4)cc3)cc2)cc1 (repeat unit)', '58.00 °C'),
  ('*c1ccc(Cc2ccc(N3C(=O)c4ccc(-c5ccc(-c6ccc(-c7ccc(-c8ccc(-c9ccc%10c(c9)C(=O)N(*)C%10=O)cc8)cc7)cc6)cc5)cc4C3=O)cc2)cc1 (repeat unit)', '244.00 °C'),
  ('*c1nnc(-c2cc(CCCCCCCC)c(-c3ccc(-c4sc(-c5nnc(-c6cc(OCCCCCCCC)c(*)cc6OCCCCCCCC)o5)cc4CCCCCCCC)s3)s2)o1 (repeat unit)', '34.10 °C'),
  ('*Nc1ccc(-c2ccc(NC(=O)c3cc(C(*)=O)cc(S(=O)(=O)c4ccccc4)c3)cc2)cc1 (repeat unit)', '319.00 °C'),
  ('*CCCOC(=O)Nc1ccc(Cc2ccc(NC(=O)O*)cc2)cc1 (repeat unit)', '119.00 °C'),
  ('*CCCCCCCCN1C(=O)c2ccc(Oc3ccc4c(c3)C(=O)N(*)C4=O)cc2C1=O (repeat unit)', '145.00 °C'),
  ('*CC(*)(C)C(=O)OC1COC(CP(=O)(OCC)OCC)OC1 (repeat unit)', '101.50 °C'),
  ('*c1ccc(C(C)(C)c2ccc(N3C(=O)c4ccc(Oc5ccc(Oc6ccc7c(c6)C(=O)N(*)C7=O)cc5)cc4C3=O)cc2)cc1 (repeat unit)', '264.00 °C'),
  ('*Oc1ccc(C(c2ccc(Oc3ccc(C(=O)c4ccc(*)cc4)cc3)cc2)(C(F)(F)F)C(F)(F)F)cc1 (repeat unit)', '175.00 °C'),
  ('*Oc1ccc(P(C)(=O)c2ccc(Oc3ccc(C(C)(C)c4ccc(*)cc4)cc3)cc2)cc1 (repeat unit)', '192.00 °C'),
  ('*c1ccc(Oc2ccccc2Oc2ccc(N3C(=O)c4ccc(Oc5ccc6c(c5)C(=O)N(*)C6=O)cc4C3=O)cc2C(F)(F)F)c(C(F)(F)F)c1 (repeat unit)', '223.00 °C'),
  ('*Cc1cc(C23CC4CC(CC(C4)C2)C3)cc(CN(*)C)c1O (repeat unit)', '188.80 °C'),
  ('*CC(CSC)O* (repeat unit)', '-37.00 °C'),
  ('*CCC(=O)NCCCCCCNC(=O)CCS* (repeat unit)', '27.00 °C'),
  ('*C(=O)c1ccc2c(c1)C(=O)N(c1ccc(Cc3cccc(N4C(=O)c5ccc(*)cc5C4=O)c3)cc1)C2=O (repeat unit)', '281.00 °C'),
  ('*CC(*)c1ccccc1F (repeat unit)', '160.50 °C'),
  ('*Oc1ccc(C(c2ccc(OC(*)=O)cc2)C2C3CCC(C3)C2C)cc1 (repeat unit)', '232.00 °C'),
  ('*CCCCCCCCCCOc1ccc(OC(=O)c2ccc(OCCOCCOCCOc3ccc(C(=O)Oc4ccc(O*)cc4)cc3)cc2)cc1 (repeat unit)', '64.00 °C'),
  ('*OC(COC(=O)C1CCC(C(*)=O)CC1)COc1ccc(/N=N/c2ccc(C#N)cc2)cc1 (repeat unit)', '106.00 °C'),
  ('*Oc1ccc(NC(=O)CCCCCCC(=O)Nc2ccc(*)cc2)cc1 (repeat unit)', '180.00 °C'),
  ('*Nc1cc(NC(=O)Nc2ccc(NC(*)=O)cc2)cc(C(=O)Nc2ccc3c(c2)C(=O)c2ccccc2C3=O)c1 (repeat unit)', '184.00 °C'),
  ('*c1ccc2c(c1)C(=O)N(C1CCC(N3C(=O)c4ccc(C(*)(C(F)(F)F)C(F)(F)F)cc4C3=O)CC1)C2=O (repeat unit)', '346.50 °C'),
  ('*N=P(*)(C)C (repeat unit)', '-42.00 °C');

----------
Readout Label: glass transition temperature (°C)

INSERT INTO results (molecule, u, result) VALUES
  ('*c1ccc(Cc2ccc(N3C(=O)c4ccc(Oc5ccc(Oc6ccc7c(c6)C(=O)N(*)C7=O)cc5)cc4C3=O)c(C)c2C)c(C)c1C (repeat unit)', '°C', 277.00),
  ('*CCN(CCOC(=O)Nc1ccc(-c2ccc(NC(=O)O*)c(C)c2)cc1C)c1ccc(/N=N/c2ccc([N+](=O)[O-])cc2)cc1 (repeat unit)', '°C', 119.50),
  ('*CCCCCCCCOC(=O)Nc1ccc(C)c(NC(=O)O*)c1 (repeat unit)', '°C', 64.00),
  ('*CCCCCCCCOc1c(OC)cc(/C=C/c2cc(C(C)C)c(/C=C/c3cc(OC)c(O*)c(OC)c3)cc2C(C)C)cc1OC (repeat unit)', '°C', 85.00),
  ('*CC(*)(C)C(=O)OCCCCCCCCCCOc1ccc(/N=N/c2ccc(C#N)cc2)cc1 (repeat unit)', '°C', 51.00),
  ('*CC(C)C(C)COC(=O)c1ccc(C(=O)O*)cc1 (repeat unit)', '°C', 37.50),
  ('*CCCCCCCCCCCCN1C(=O)c2ccc(C(c3ccc4c(c3)C(=O)N(CCCCCCCCCCCCN3C(=O)c5ccc6c7ccc8c9c(ccc(c%10ccc(c5c6%10)C3=O)c97)C(=O)N(*)C8=O)C4=O)(C(F)(F)F)C(F)(F)F)cc2C1=O (repeat unit)', '°C', 170.00),
  ('*Oc1ccc(C(=O)c2ccc(Oc3ccc(C(=O)c4c(C(=O)c5ccc(*)cc5)c(-c5ccccc5)c(-c5ccc6ccccc6c5)c(-c5ccc6ccccc6c5)c4-c4ccccc4)cc3)cc2)cc1 (repeat unit)', '°C', 290.00),
  ('*c1ccc(-c2nc3cc(Oc4ccc(NC(=O)c5cc(C(=O)Nc6ccc(Oc7ccc8nc(-c9ccccc9)c(*)nc8c7)cc6)cc(N6C(=O)c7ccccc7C6=O)c5)cc4)ccc3nc2-c2ccccc2)cc1 (repeat unit)', '°C', 302.00),
  ('*c1ccc(/C=C(\C#N)c2cc(OCCCCCCCC)c(/C(C#N)=C/c3ccc(N(*)c4ccccc4)cc3)cc2OCCCCCCCC)cc1 (repeat unit)', '°C', 78.00),
  ('*Oc1ccc(/C=N/N=C/c2ccc(Oc3ccc(C(=O)c4ccc(*)cc4)cc3)cc2)cc1 (repeat unit)', '°C', 179.00),
  ('*OC(=O)c1ccc(Cc2ccc(C(*)=O)cc2)cc1 (repeat unit)', '°C', 122.00),
  ('*Oc1c(C(C)C)cc(*)cc1C(C)C (repeat unit)', '°C', 152.40),
  ('*c1c(C)cc(C(c2cccnc2)c2cc(C)c(N3C(=O)CC(Nc4ccc(NC5CC(=O)N(*)C5=O)cc4)C3=O)c(C)c2)cc1C (repeat unit)', '°C', 231.00),
  ('*O[Si](C)(C)CCCCCC[Si](*)(C)C (repeat unit)', '°C', -90.00),
  ('*c1ccc(Sc2cc3c(cc2Sc2ccc(N4C(=O)c5ccc(Oc6ccc7c(c6)C(=O)N(*)C7=O)cc5C4=O)cc2)C(=O)N(CCCCCCCCCCCCCCCC)C3=O)cc1 (repeat unit)', '°C', 156.00);

----------
Each record is given rule met if its reported glass transition temperature is strictly below 100 °C. Records at or above 100 °C are given rule not met.

INSERT INTO measurements (compound, class_name) VALUES
  ('*OC1C(CO)OC(*)C(NC(C)=O)C1O (repeat unit)', 'rule not met'),
  ('*C(C)C(*)C(=O)OCCCC (repeat unit)', 'rule met'),
  ('*Oc1c(Br)cc(C2(c3cc(Br)c(OC(*)=O)c(Br)c3)CC3CCC2C3)cc1Br (repeat unit)', 'rule not met'),
  ('*Oc1c(C)cc(*)cc1C(C)CCCCCC (repeat unit)', 'rule met'),
  ('*Cc1cc2cc(C(=O)Nc3ccc(-c4ccc(NC(=O)c5cc6cc(*)c(OC(=O)COc7ccc8ccc(=O)oc8c7)cc6oc5=O)cc4)cc3)c(=O)oc2cc1OC(=O)COc1ccc2ccc(=O)oc2c1 (repeat unit)', 'rule not met'),
  ('*Oc1ccc(CC(NC(=O)CCc2ccc(OC(=O)CCCC(*)=O)cc2)C(=O)OCC)cc1 (repeat unit)', 'rule met'),
  ('*CC#CC#CCOc1ccc(C(=O)OCCN(CCOC(=O)c2ccc(O*)cc2)c2ccc(/N=N/c3ccc(/N=N/c4cc(C)c([N+](=O)[O-])c(C)c4)cc3)cc2)cc1 (repeat unit)', 'rule not met');

----------
# label = 1 if glass transition temperature >= 200 °C else -1

INSERT INTO measurements (molecule, class_name) VALUES
  ('*c1ccc(Oc2ccc(N3C(=O)c4ccc(Oc5ccc6c(c5)C(=O)N(*)C6=O)cc4C3=O)cc2)cc1 (repeat unit)', 1),
  ('*c1ccc2c(c1)C(=O)N(c1cc(N3C(=O)c4ccc(C(*)(C(F)(F)F)C(F)(F)F)cc4C3=O)ccc1OCCCCCCOc1ccc(-c3ccc(OCC)cc3)cc1)C2=O (repeat unit)', -1),
  ('*CC(F)(F)C(F)(F)C(F)(F)COC(=O)CCCCC(=O)O* (repeat unit)', -1),
  ('*CC(*)c1ccc(B(Oc2ccc(B3OC(C)(C)C(C)(C)O3)c3cccnc23)c2ccc(C(C)(C)C)cc2)cc1 (repeat unit)', 1),
  ('*CC(*)c1ccccc1C(F)(F)F (repeat unit)', -1),
  ('*c1ccc(-c2cc(CCCCCCCC)c(-c3ccc(-c4sc(*)cc4CCCCCCCC)cc3)s2)cn1 (repeat unit)', -1),
  ('*c1ccc(Oc2ccc(C(c3ccc(Oc4ccc(N5C(=O)c6ccc(Oc7ccc(C8(c9ccc(Oc%10ccc%11c(c%10)C(=O)N(*)C%11=O)cc9)CCC(C(C)(C)C)CC8)cc7)cc6C5=O)cc4)cc3)(C(F)(F)F)C(F)(F)F)cc2)cc1 (repeat unit)', 1),
  ('*Oc1ccc(S(=O)(=O)N(C)CCCCN(C)S(=O)(=O)c2ccc(Oc3ccc(C(C)(C)c4ccc(*)cc4)cc3)cc2)cc1 (repeat unit)', -1),
  ('*c1ccc(-c2cc(C(C)(C)C)c(Oc3ccc(-n4c(=O)c5cc6c(=O)n(*)c(=O)c6cc5c4=O)cc3)c(C(C)(C)C)c2)cc1 (repeat unit)', 1),
  ('*CC(*)c1ccccc1C(=O)NC (repeat unit)', -1),
  ('*C([2H])([2H])C(*)([2H])Cl (repeat unit)', -1),
  ('*CCc1ccc(*)c(Br)c1 (repeat unit)', -1);
